Data provenance: paper PMC5540273

// reported %Inh for each item listed
- Test system: RIPK4;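 further: KINOMEscan kinase panel screen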
- EXPERIMENTAL_SETUP: concentration: 1 μM, replicates: in singlicate; n = 1

{"COMPOUND": "O=C(Nc1n[nH]c2nc(-c3cccs3)c(Br)cc12)C1CCCC1 [SB-743341]", "%Inh / %": 0}
{"COMPOUND": "CSc1ccc(-c2nc3n(c2-c2ccncc2)CCC3)cc1 [SKF-105561]", "%Inh / %": 13}
{"COMPOUND": "Cc1cccc2c(-c3ccncn3)c(-c3ccc(F)cc3)nn12 [GW515532]", "%Inh / %": 8}
{"COMPOUND": "Cc1ccc(NC(=O)Nc2ccccc2)cc1-c1ccc(C(=O)Nc2ccncc2)cc1 [GSK1398471]", "%Inh / %": 1}
{"COMPOUND": "Cc1ccc(NC(=O)Nc2ccc(Cl)cc2)cc1-c1ccc(C(=O)Nc2ccncc2)cc1 [GSK1398472]", "%Inh / %": 28}
{"COMPOUND": "COc1ccc(CSc2nnc(-c3ccc4c(c3)CCO4)o2)cc1", "%Inh / %": 0}
{"COMPOUND": "CS(=O)(=O)CCNCc1nc(-c2ccc3ncnc(Nc4ccc(OCc5ccccc5)c(Cl)c4)c3c2)cs1.Cl [GW582764]", "%Inh / %": 1}
{"COMPOUND": "COc1cccc(NC(=O)Nc2ccc(C)c(-c3ccc(C(=O)Nc4ccncc4)cc3)c2)c1 [GSK1398474]", "%Inh / %": 23}
{"COMPOUND": "COc1ccc(Nc2nccc(-c3ccc(NC(=O)c4cc5cc(F)ccc5[nH]4)cc3)n2)cc1 [GSK1229496]", "%Inh / %": 0}
{"COMPOUND": "CC(=O)c1c(C)c2cnc(Nc3ccc(N4CCNCC4)cn3)nc2n(C2CCCC2)c1=O", "%Inh / %": 0}
{"COMPOUND": "Nc1cccc(-c2ccc3c(N)n[nH]c3c2)n1 [GSK2192730]", "%Inh / %": 41}
{"COMPOUND": "COc1cc2ncnc(Nc3cccc(Br)c3)c2cc1OC.Cl [GI230329]", "%Inh / %": 5}
{"COMPOUND": "COc1ccc(CSc2nnc(-c3ccc4ncsc4c3)o2)cc1C(F)(F)F", "%Inh / %": 0}
{"COMPOUND": "COC(=O)c1cccc(NC(=O)NC2CCN(c3ccnc(Nc4ccc(OC)cc4)n3)C2)c1 (stereo not shown) [GSK1379746]", "%Inh / %": 13}
{"COMPOUND": "COc1ccc2cc(-c3nc(-c4ccccc4C(C)C)[nH]c3-c3ccncc3)ccc2c1 [SB-660566]", "%Inh / %": 25}
{"COMPOUND": "Cc1ccc(-c2nc(Nc3ccncc3)c3ccccc3n2)s1 [GSK189015]", "%Inh / %": 20}
{"COMPOUND": "COc1ccc(CSc2nnc(-c3ccc4nccn4c3)o2)cc1C(F)(F)F", "%Inh / %": 0}
{"COMPOUND": "COc1nccc(-c2c(-c3ccc(F)cc3)ncn2CCCN2CCOCC2)n1 [SB-282852]", "%Inh / %": 47}
{"COMPOUND": "O=c1cc(N2CCOCC2)nc2n(Cc3ccccc3F)ccn12 [GSK2297428]", "%Inh / %": 0}
{"COMPOUND": "NS(=O)(=O)c1cccc(N/C=C2\\C(=O)Nc3ccc(S(=O)(=O)Cc4c(Cl)cccc4Cl)cc32)c1 [GSK398099]", "%Inh / %": 14}
{"COMPOUND": "CNc1cc(-c2ccc3c(N)n[nH]c3c2)nc(N)n1 [GSK2224810]", "%Inh / %": 64}
{"COMPOUND": "FC(F)(F)c1ccccc1-c1cc(-c2c[nH]nc2-c2ccccn2)ccn1 [GW679396]", "%Inh / %": 0}
